Just for reference, PubChem BioAssay (NCATS) is where these values come from.

# EXPERIMENTAL_SETUP: Ebola virus entry assay, reporter ratio channel; Channel type: primary
The source made the active and inactive calls. How the calls were made is not given here.

| MOLECULE | AC50 |
| --- | --- |
| CCCOC(=O)c1ccc(N)cc1 | inactive |
| CN(C)c1ccc(C(=C2C=CC(=[N+](C)C)C=C2)c2ccccc2)cc1 | 0.708 µM (active) |
| Cc1ccc(C(=O)Oc2ccc(C(O)CNC(C)(C)C)cc2OC(=O)c2ccc(C)cc2)cc1 (centres undefined) | 3.55 µM (active) |
| Cc1nnc(C(=O)NC(C)(C)c2nc(C(=O)NCc3ccc(F)cc3)c(O)c(=O)n2C)o1 | inactive |
| CN1CCC(=C2c3ccccc3CC(=O)c3sccc32)CC1 | 28.2 µM (active) |
| CN1CCCCC1CCN1c2ccccc2Sc2ccc(S(C)=O)cc21 (centres undefined) | 7.94 µM (active) |
| C[C@H]1C(=O)O[C@@H]2CCN3CC=C(COC(=O)[C@](C)(O)[C@]1(C)O)[C@H]23 | inactive |
| Cc1ccc(Nc2c(F)cccc2Cl)c(CC(=O)O)c1 | inactive |
| COc1cc(C(=O)NCCCCCC(=O)O)cc(OC)c1OC | inactive |
| O=Cc1ccccc1C=O | inactive |
| CN1CCC(=C2c3ccccc3CCc3sccc32)CC1 | 8.91 µM (active) |
| CC(C)Cn1cnc2c1c(=O)n(C)c(=O)n2C | inactive |
| Cc1cc2nc3ccc(=[N+](C)C)cc-3sc2cc1N | inactive |
| O=C(O)c1ccccc1Nc1cc(Cl)ccc1C(=O)O | inactive |
| O=C(O)C(=O)Nc1cccc(-c2nn[nH]n2)c1 | inactive |
| CC(=O)N[C@H]1[C@H]([C@H](O)[C@H](O)CO)OC(C(=O)O)=C[C@@H]1N=C(N)N | inactive |
| O=C(Nc1ccccc1)OCC(CN1CCCCC1)OC(=O)Nc1ccccc1 (centres undefined) | 10 µM (active) |
| Oc1ccc(O)cc1 | inactive |
| CC1=C(C(=O)OC(C)C)C(c2cccc([N+](=O)[O-])c2)C(C(=O)OC2CN(C(c3ccccc3)c3ccccc3)C2)=C(N)N1 (centres undefined) | 28.2 µM (active) |
| O=C(Nc1ccc(Cl)cc1)Nc1ccc(Cl)c(Cl)c1 | 12.6 µM (active) |
| c1ccc(C(O[C@H]2CCCN(CCc3ccc4c(c3)OCO4)C2)c2ccccc2)cc1 | 25.1 µM (active) |
| COc1cc(NS(=O)(=O)c2ccc(N)cc2)nc(OC)n1 | inactive |
| CCC(CN)=C(c1ccccc1)c1ccccc1 | 17.8 µM (active) |
| COc1ccc(CN(CCN(C)C)c2ccccn2)cc1 | 15.8 µM (active) |
| C[C@]12CCC(=O)C=C1CC[C@@H]1[C@@H]2[C@@H](O)C[C@@]2(C)[C@H]1CC[C@]2(O)C(=O)CO | inactive |
| Nc1ccc2cc3ccc(N)cc3nc2c1 | 39.8 µM (active) |
| C[C@H](N)[C@H](O)c1ccc(O)c(O)c1 | 4.47 µM (active) |
| CCO[C@H]1O[C@@H]2OC3(C)CC[C@H]4[C@H](C)CC[C@@H]([C@H]1C)[C@@]24OO3 | inactive |
| COc1ccc2cc3[n+](cc2c1OC)CCc1cc2c(cc1-3)OCO2 | inactive |
